Please provide measured TGI for the entries that follow.
- Tested on: MOLT-4 leukemia
- assay.protocol: NCI tumour cell line growth inhibition, 48 h

Example cases with answers are listed next.
[
  {
    "compound": "CC(=O)OCc1cc2ccccc2nc1C(Br)(Br)Br",
    "TGI": "28.1 µM"
  },
  {
    "compound": "O=[N+]([O-])c1ccc(N/N=C/c2ccc(OCCCCCCCCCCCO)cc2)c([N+](=O)[O-])c1",
    "TGI": "> 100 µM"
  },
  {
    "compound": "CN(C)CCNC(=O)c1ccc(NC(=O)c2nc([N+](=O)[O-])cn2C)cc1",
    "TGI": "> 100 µM"
  },
  {
    "compound": "Cc1cc(S(=O)(=O)Nc2nc3ccccc3c(=O)n2N)c(S)cc1Cl",
    "TGI": "> 100 µM"
  },
  {
    "compound": "CCCC(=O)OC1C(CO)OC(n2cc(F)c(=O)[nH]c2=O)C1F (stereo not given)",
    "TGI": "> 100 µM"
  },
  {
    "compound": "COC(=O)CC[C@H](Cc1ccccc1)NC(=O)c1csc([C@@H](C[C@H](C(C)C)N(C)C(=O)[C@@H](NC(=O)[C@H]2CCCCN2C)C(C)C)OC(C)=O)n1",
    "TGI": "10.5 µM"
  },
  {
    "compound": "COc1ccccc1C(=O)c1c(NCc2ccccc2)c(=O)c1=O",
    "TGI": "83.3 µM"
  },
  {
    "compound": "COc1ccc(/C=C2\\CCC(C)C3=C2N=c2s/c(=C/c4cccc(Br)c4)c(=O)n2C3c2ccc(OC)c(OC)c2)cc1OC (stereo not given)",
    "TGI": "> 100 µM"
  },
  {
    "compound": "Clc1ccc(C(n2cc(Br)cn2)n2cc(Br)cn2)cc1",
    "TGI": "47.9 µM"
  },
  {
    "compound": "Nc1onc2c1Cc1c(noc1N)-c1ccccc1-2",
    "TGI": "> 100 µM"
  }
]

Dear colleague, could you please provide TGI for the compounds listed below?
1. CN(C)CCCNC(=O)c1cc(NC(=O)c2cc(NC(=O)CCNS(=O)(=O)c3ccc4c(c3)C(=O)c3ccccc3C4=O)cn2C)cn1C
2. O=C1c2ccc(O)c(O)c2C(=O)c2c(O)ccc(O)c21
3. O=C1CCc2c(sc3[nH]c(=S)n(Cc4ccc(Cl)cc4)c(=O)c23)C1
4. CN(C)c1ccc(/C=C/c2cc[n+](C)c(/C=C/c3ccc(N(C)C)cc3)c2)cc1
5. NC(N)=NS(=O)(=O)c1ccc(Nc2c3ccccc3nc3c(C(=O)Nc4ccc(S(N)(=O)=O)cc4)cccc23)cc1

Reply:
> 100 µM
62.2 µM
17.1 µM
3.53 µM
> 100 µM

Dear colleague, could you please provide TGI for the compounds listed below?
1. Oc1ccc2oc3ncc(Br)c(-c4ccccc4)c3c2c1
2. O=Cc1c(O)c(C(=O)Nc2ccc3[nH]c(=O)[nH]c3c2)cc2ccccc12
3. COc1cc(CNNC(N)=S)cc(OC)c1OC

Reply:
> 100 µM
> 100 µM
> 100 µM

Dear colleague, could you please provide TGI for the compounds listed below?
1. Oc1ccc2c(c1)-c1c(c3ccccc3n1CCN1CCOCC1)CC2
2. Cn1c(-c2cccc([N+](=O)[O-])c2)[n+](C)c2ccccc21

Reply:
["> 100 µM", "> 100 µM"]
